tested on: MDA-MB-468 breast; experiment: NCI tumour cell line growth inhibition, 48 h
compounds and their reported GI50
measured endpoint: GI50

[[record]]
compound = "CCC1CCc2nc3sc(C(=O)Nc4ccccc4C)c(N)c3cc2C1 (stereo not given)"
measured_endpoint = "GI50"
value_observed = "244 nM"

[[record]]
compound = "C#Cc1cccc(Nc2nc3ccc([N+](=O)[O-])cc3nc2Nc2cccc(C#C)c2)c1"
measured_endpoint = "GI50"
value_observed = "174 nM"

[[record]]
compound = "Cn1cc(-c2cc(N)n3nc(-c4c[nH]c5ccc(Cl)cc45)cc3n2)c2cc(Br)cnc21"
measured_endpoint = "GI50"
value_observed = "1320 nM"

[[record]]
compound = "CCCCn1sc(=O)n(Cc2ccc(CNC(=O)OCc3ccc4c(Br)cc(Br)c(O)c4n3)cc2)c1=O"
measured_endpoint = "GI50"
value_observed = "388 nM"

[[record]]
compound = "COc1ccc(C(=O)c2cc3c(N)c(C(=O)Nc4cccc(Cl)c4C)sc3nc2C)cc1"
measured_endpoint = "GI50"
value_observed = "70.7 nM"

[[record]]
compound = "O=C(CCCCCCSc1nc(-c2ccc(Cl)cc2)cc(-c2ccc(Cl)cc2)n1)NO"
measured_endpoint = "GI50"
value_observed = "1620 nM"

[[record]]
compound = "c1ccc(Cn2c(-c3ccc(OC[C@H](C4CCNCC4)n4c(-c5ccccc5)nc5ccccc54)cc3)nc3ccccc32)cc1"
measured_endpoint = "GI50"
value_observed = "1120 nM"

[[record]]
compound = "CCOC(=O)c1cc2c(n1Cc1ccccc1)-c1oncc1CC2"
measured_endpoint = "GI50"
value_observed = "2190 nM"

[[record]]
compound = "C=C1C(=O)O[C@H]2[C@H]1CC/C(COC(=O)c1ccc(C#N)cc1)=C\\CC[C@@]1(C)O[C@@H]21"
measured_endpoint = "GI50"
value_observed = "1030 nM"

[[record]]
compound = "Cc1occc1C(=O)NN1C(=O)/C(=C/C=C/c2ccc([N+](=O)[O-])o2)SC1=S"
measured_endpoint = "GI50"
value_observed = "1620 nM"


----------
system: 786-0 renal; assay: NCI tumour cell line growth inhibition, 48 h; in the data active = GI50 below about 0.43 µM; inactive = the rest
Classes used: 1 for active, -1 for inactive

[[record]]
compound = "Fc1cccc(CNc2nc(SCCN3CCOCC3)nc3c2cnn3CC(Cl)c2ccc(Br)cc2)c1 (centres undefined)"
label = -1

[[record]]
compound = "Oc1ccc(Cl)c(Nc2ncnc3c2cnn3CC(Cl)c2ccc(Br)cc2)c1 (centres undefined)"
label = -1

[[record]]
compound = "Cn1cc(-c2cc(N)n3nc(-c4c[nH]c5ccc(Cl)cc45)cc3n2)c2cc(Br)cnc21"
label = -1

[[record]]
compound = "COc1cc2cc(C(=O)N3C[C@@H](CCl)c4c3cc(OC(=O)N(CCC(=O)N3CCN(C)CC3)[C@H]3CCSSC3)c3ccccc43)[nH]c2c(OC)c1OC"
label = 1


----------
compounds and their reported TGI
tested on: MDA-MB-468 breast; experiment: NCI tumour cell line growth inhibition, 48 h
measured endpoint: TGI (µM)

[[record]]
compound = "C/C(Cc1ccc(Cl)cc1)=C(/c1ccc(Cl)cc1)c1ccc(OCCN(C)C)cc1"
assayed_system = "MDA-MB-468 breast"
inequality_symbol = "="
value_observed = 7.76

[[record]]
compound = "Cc1ccc(S(=O)(=O)Cc2nc(-c3ccc(C(=O)NCc4cccnc4)cc3)oc2C)cc1"
assayed_system = "MDA-MB-468 breast"
inequality_symbol = ">"
value_observed = 100

[[record]]
compound = "CCC1CCc2nc3sc(C(=O)Nc4ccccc4C)c(N)c3cc2C1 (configuration not stated)"
assayed_system = "MDA-MB-468 breast"
inequality_symbol = "="
value_observed = 0.742

[[record]]
compound = "COc1cnc2c(c1)C(=O)c1c-2n(CCCN2CCCC2)c(=O)c2cc(F)ccc12"
assayed_system = "MDA-MB-468 breast"
inequality_symbol = "="
value_observed = 0.517

[[record]]
compound = "Oc1ccc(Cl)c(Nc2ncnc3c2cnn3CC(Cl)c2ccc(Br)cc2)c1 (configuration not stated)"
assayed_system = "MDA-MB-468 breast"
inequality_symbol = "="
value_observed = 16.3

[[record]]
compound = "O=C1CCc2c(sc3[nH]c(=S)n(Cc4ccccc4)c(=O)c23)C1"
assayed_system = "MDA-MB-468 breast"
inequality_symbol = "="
value_observed = 9.31

[[record]]
compound = "c1ccc(Cn2c(-c3ccc(OC[C@H](C4CCNCC4)n4c(-c5ccccc5)nc5ccccc54)cc3)nc3ccccc32)cc1"
assayed_system = "MDA-MB-468 breast"
inequality_symbol = "="
value_observed = 2.46

[[record]]
compound = "CNCCCNc1nc2ccccc2c2c(=O)c3cc(Cl)ccc3sc12"
assayed_system = "MDA-MB-468 breast"
inequality_symbol = "="
value_observed = 2.83

[[record]]
compound = "O=C(O)C1(Cc2cccc(Nc3nccs3)n2)CCC(Oc2cccc(Cl)c2F)CC1 (configuration not stated)"
assayed_system = "MDA-MB-468 breast"
inequality_symbol = "="
value_observed = 34.6

[[record]]
compound = "Cn1cc(-c2cc(N)n3nc(-c4c[nH]c5ccc(Cl)cc45)cc3n2)c2cc(Br)cnc21"
assayed_system = "MDA-MB-468 breast"
inequality_symbol = "="
value_observed = 2.73

[[record]]
compound = "C=C1C(=O)O[C@H]2[C@H]1CC/C(COC(=O)c1ccc(C#N)cc1)=C\\CC[C@@]1(C)O[C@@H]21"
assayed_system = "MDA-MB-468 breast"
inequality_symbol = "="
value_observed = 3.13

[[record]]
compound = "CCCCn1sc(=O)n(Cc2ccc(CNC(=O)OCc3ccc4c(Br)cc(Br)c(O)c4n3)cc2)c1=O"
assayed_system = "MDA-MB-468 breast"
inequality_symbol = ">"
value_observed = 100

[[record]]
compound = "COc1ccc(-c2cc(-c3cc(OC)c(OC)c(OC)c3)c(C#N)c(N3CCOCC3)n2)cc1O"
assayed_system = "MDA-MB-468 breast"
inequality_symbol = ">"
value_observed = 100

[[record]]
compound = "CN(C[C@@H]1COCCO1)S(=O)(=O)Nc1ccc2ccc3ncc(-c4cnn(C)c4)cc3c(=O)c2c1"
assayed_system = "MDA-MB-468 breast"
inequality_symbol = ">"
value_observed = 100

[[record]]
compound = "COc1cccc(C2C3=C(COC3=O)Oc3cc4c(cc32)OCO4)c1 (configuration not stated)"
assayed_system = "MDA-MB-468 breast"
inequality_symbol = ">"
value_observed = 100

[[record]]
compound = "CCCSC1=NC2C(N(CC)C(=O)N2CC)N1/N=C/C=C/c1ccccc1[N+](=O)[O-] (configuration not stated)"
assayed_system = "MDA-MB-468 breast"
inequality_symbol = ">"
value_observed = 100

[[record]]
compound = "O=C(OCc1ccc2c(Cl)cc(Cl)c(O)c2n1)c1cc2ccccc2[nH]1"
assayed_system = "MDA-MB-468 breast"
inequality_symbol = "="
value_observed = 0.626


----------
molecules and their reported TGI
test system: OVCAR-4 ovarian; assay: NCI tumour cell line growth inhibition, 48 h
measured endpoint: TGI (µM)

[[record]]
molecule = "Cn1cc(-c2cc(N)n3nc(-c4c[nH]c5ccc(Cl)cc45)cc3n2)c2cc(Br)cnc21"
measured_endpoint = "TGI"
inequality_symbol = "="
value_observed = 9.01

[[record]]
molecule = "Clc1ccc(/C=N/Nc2ncnc3sc4c(c23)CCN(Cc2ccccc2)C4)cc1"
measured_endpoint = "TGI"
inequality_symbol = "="
value_observed = 7.52

[[record]]
molecule = "Oc1ccc(Cl)c(Nc2ncnc3c2cnn3CC(Cl)c2ccc(Br)cc2)c1 (centres undefined)"
measured_endpoint = "TGI"
inequality_symbol = "="
value_observed = 54.4

[[record]]
molecule = "Fc1cccc(CNc2nc(SCCN3CCOCC3)nc3c2cnn3CC(Cl)c2ccc(Br)cc2)c1 (centres undefined)"
measured_endpoint = "TGI"
inequality_symbol = ">"
value_observed = 100


These measurements were taken from PubChem BioAssay (NCI).
